assay: collision cross section in nitrogen (drift tube, single-field); higher = larger gas-phase ion size; conditions: ion type: [M-H]; ion source: ESI; ion mode: Negative;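 note: chemical standards at 10 µM analysed by drift tube IMS-QTOF MS in about 3.95 torr nitrogen, mean of duplicate injections differing ≤1%, mass error below 10 ppm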
Where a name gives a salt, the structure may show the parent alone.
recordedMetric: collision cross section in nitrogen
Just so you know, I need the unit written after the number.

What value of collision cross section in nitrogen has been recorded for this entry: S=c1[nH]c(=S)[nH]c(=S)[nH]1 [Trisodium 2,4,6-trithioxo-1,3,5-triazinane-1,3,5-triide]
125.6 Å²

What value of collision cross section in nitrogen has been recorded for this entry: CCCCc1ccc2c(n1)[C@@H](c1ccc(OC)cc1C[C@H](C)C(=O)O)[C@H](C(=O)O)[C@H]2c1ccc2c(c1)OCO2 [MK-547]
236.4 Å²

What value of collision cross section in nitrogen has been recorded for this entry: CCCCC(CC)COC(=O)CC(C(=O)OCC(CC)CCCC)S(=O)(=O)O (stereo not drawn) [Docusate sodium]
206.1 Å²

What value of collision cross section in nitrogen has been recorded for this entry: COc1cc(C(C)(C)C)c(O)c(C(C)(C)C)c1 [2,6-Di-tert-butyl-4-methoxyphenol]
160.4 Å²

What value of collision cross section in nitrogen has been recorded for this entry: CCCCCCCCCCCC(=O)N(C)CC(=O)O [Glycine, N-methyl-N-(1-oxododecyl)-, sodium salt]
169.5 Å²

What value of collision cross section in nitrogen has been recorded for this entry: O=C1c2ccccc2C(=O)C1C(=O)C(c1ccccc1)c1ccc(Cl)cc1 (stereo not drawn) [Chlorophacinone]
193.2 Å²

What value of collision cross section in nitrogen has been recorded for this entry: Oc1ccc2ccccc2c1N=Nc1ccccc1 [C.I. Solvent Yellow 14]
160.1 Å²

What value of collision cross section in nitrogen has been recorded for this entry: `NC(=O)c1nc(-c2cccc(-c3cc(F)ccc3OCC(F)(F)C(F)(F)F)c2)n[nH]1`
195.5 Å²
